Numbers sourced from ChEMBL document CHEMBL2069245.

# pIC50 per entry for Cytochrome P450 2C9 (Homo sapiens)
pIC50: −log10 of the molar value.

Below, each entry is followed by its recorded pIC50 result.
- TEST SMILES: "CCCS(=O)(=O)c1ccc2[nH]c(-c3cccn(-c4ccccc4)c3=O)nc2c1"
  pIC50: "< 4.70"
- TEST SMILES: "CCCS(=O)(=O)c1ccc2nc(-c3cn(-c4ccccc4)ccc3=O)[nH]c2c1"
  pIC50: "< 4.70"

Here `CCCS(=O)(=O)c1ccc2[nH]c(-c3ccc(=O)n(-c4ccccc4)c3)nc2c1` was tested on Cytochrome P450 2C9 (Homo sapiens), and its pIC50 came to < 4.70

* * *

- TARGET: Neuropeptide Y receptor type 5 (Mus musculus, UniProt O70342)
- Sequence (O70342 whole entry): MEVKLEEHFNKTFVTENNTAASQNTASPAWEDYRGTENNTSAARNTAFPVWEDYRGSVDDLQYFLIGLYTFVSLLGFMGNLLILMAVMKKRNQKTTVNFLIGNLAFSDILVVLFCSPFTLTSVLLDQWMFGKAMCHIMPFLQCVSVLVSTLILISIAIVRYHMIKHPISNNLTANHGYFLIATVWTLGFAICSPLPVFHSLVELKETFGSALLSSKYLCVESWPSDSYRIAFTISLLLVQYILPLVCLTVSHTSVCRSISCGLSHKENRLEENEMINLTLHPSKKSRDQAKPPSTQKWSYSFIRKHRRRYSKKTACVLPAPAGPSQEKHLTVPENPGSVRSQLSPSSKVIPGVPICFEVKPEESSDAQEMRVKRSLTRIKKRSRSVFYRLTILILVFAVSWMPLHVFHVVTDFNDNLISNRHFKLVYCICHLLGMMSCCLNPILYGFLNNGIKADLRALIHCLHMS
MEASURED QUANTITY: IC50 (µM)

- TEST SMILES: "CCCS(=O)(=O)c1ccc2[nH]c(-c3ccccc3-c3ccccc3)nc2c1"
  UNIT NAME: "µM"
  RECORDED VALUE: 4.06
- TEST SMILES: "CCCS(=O)(=O)c1ccc2nc(-c3cn(-c4ccccc4)ccc3=O)[nH]c2c1"
  UNIT NAME: "µM"
  RECORDED VALUE: 0.579
- TEST SMILES: "CC(C)(C)S(=O)(=O)c1ccc2nc(-c3ccc(=O)n(-c4ccccc4)c3)[nH]c2c1"
  UNIT NAME: "µM"
  RECORDED VALUE: 0.0075
- TEST SMILES: "CCS(=O)(=O)c1ccc2nc(-c3cc(-c4ccccc4)ccn3)[nH]c2c1"
  UNIT NAME: "µM"
  RECORDED VALUE: 0.00055
- TEST SMILES: "CCS(=O)(=O)c1ccc2[nH]c(-c3cccc(-c4ccccc4)c3Cl)nc2c1"
  UNIT NAME: "µM"
  RECORDED VALUE: 0.0405
- TEST SMILES: "CCS(=O)(=O)c1ccc2[nH]c(-c3ccc(Cl)c(-c4ccccc4)c3)nc2c1"
  UNIT NAME: "µM"
  RECORDED VALUE: 0.00016
- TEST SMILES: "CCS(=O)(=O)c1ccc2nc(-c3cc(-c4ccccc4)ccc3C)[nH]c2c1"
  UNIT NAME: "µM"
  RECORDED VALUE: 0.383
- TEST SMILES: "O=c1ccc(-c2nc3ccc(S(=O)(=O)C(F)(F)F)cc3[nH]2)cn1-c1ccccc1"
  UNIT NAME: "µM"
  RECORDED VALUE: 0.0025

(P) CCCS(=O)(=O)c1ccc2nc(-c3cccc(OC(F)(F)F)c3)[nH]c2c1
(Q) CCS(=O)(=O)c1ccc2nc(-c3cccc(-c4ccccc4)c3C)[nH]c2c1
Kindly identify the item with the lower IC50 figure among these two: P and Q Respond using the label that marks the chosen record.
P

* * *

- TEST NAME: physchem
- STATED CONDITIONS: 1% DMSO, pH 6.8
MEASURED QUANTITY: solubility kinetic (µM)

(P) CCS(=O)(=O)c1ccc2nc(-c3cc(-c4ccccc4)ccc3C)[nH]c2c1
(Q) CCS(=O)(=O)c1ccc2[nH]c(-c3cccc(-c4ccccc4)c3Cl)nc2c1
Kindly identify the item with the lower solubility kinetic figure among these two: P and Q Respond using the label that marks the chosen record.
P
(P: 0.5 µM, Q: 1.5 µM)

(a) O=c1ccc(-c2nc3cc(S(=O)(=O)CC(F)(F)F)ccc3[nH]2)cn1-c1ccccc1
(b) CCS(=O)(=O)c1ccc2[nH]c(-c3ccnc(-c4ccccc4)c3)nc2c1
Which has the higher solubility kinetic, a or b ? Respond using the label that marks the chosen record.
b
(b: 20.3 µM, a: 7.7 µM)

(1) CCCS(=O)(=O)c1ccc2[nH]c(-c3ccccc3-c3ccccc3)nc2c1
(2) CCS(=O)(=O)c1ccc2nc(-c3cccc(-c4ccccc4)c3F)[nH]c2c1
(3) CCS(=O)(=O)c1ccc2nc(-c3cc(-c4ccccc4)ccc3Cl)[nH]c2c1
(4) CCCS(=O)(=O)c1ccc2nc(-c3cn(-c4ccccc4)ccc3=O)[nH]c2c1
Order each entry by recorded solubility kinetic, climbing from the minimum. A ranking is expressed here by listing the labels in the requested order.
3, 2, 4, 1

(1) CC(C)(C)S(=O)(=O)c1ccc2nc(-c3ccc(=O)n(-c4ccccc4)c3)[nH]c2c1
(2) CCS(=O)(=O)c1ccc2nc(-c3cccc(-c4ccccc4)c3C)[nH]c2c1
Kindly identify the item with the lower solubility kinetic figure among these two: 1 and 2 Respond using the label that marks the chosen record.
2

* * *

- TEST NAME: in vitro
- STATED CONDITIONS: rat, liver microsomes
MEASURED QUANTITY: remaining at 0.5 h (%)

- TEST SMILES: "CCCS(=O)(=O)c1ccc2[nH]c(-c3ccc(=O)n(-c4ccccc4)c3)nc2c1"
  remaining at 0.5 h / %: 78.6

(A) O=c1ccc(-c2nc3cc(S(=O)(=O)CC(F)(F)F)ccc3[nH]2)cn1-c1ccccc1
(B) CCCS(=O)(=O)c1ccc2[nH]c(-c3cccc(-c4ccccc4)c3)nc2c1
Kindly identify the item with the lower remaining at 0.5 h figure among these two: A and B Respond using the label that marks the chosen record.
B
(B: 57.1%, A: 93.6%)

* * *

- TEST NAME: physchem
- STATED CONDITIONS: 1% DMSO, pH 6.8
MEASURED QUANTITY: solubility kinetic (µM)

(P) CCS(=O)(=O)c1ccc2nc(-c3ccc(F)c(-c4ccccc4)c3)[nH]c2c1
(Q) CCCS(=O)(=O)c1ccc2[nH]c(-c3cccc(-c4ccccc4)c3)nc2c1
Which has the higher solubility kinetic, P or Q ? Respond using the label that marks the chosen record.
Q

* * *

- TEST NAME: in vitro
- STATED CONDITIONS: human, liver microsomes
MEASURED QUANTITY: remaining at 0.5 h (%)

- TEST SMILES: "O=c1ccc(-c2nc3cc(S(=O)(=O)CC(F)(F)F)ccc3[nH]2)cn1-c1ccccc1"
  UNIT NAME: "%"
  RECORDED VALUE: 94.7
- TEST SMILES: "CC(C)(C)S(=O)(=O)c1ccc2nc(-c3ccc(=O)n(-c4ccccc4)c3)[nH]c2c1"
  UNIT NAME: "%"
  RECORDED VALUE: 94.2
- TEST SMILES: "CCCS(=O)(=O)c1ccc2[nH]c(-c3cccc(-c4ccccc4)c3)nc2c1"
  UNIT NAME: "%"
  RECORDED VALUE: 68.6
- TEST SMILES: "CCCS(=O)(=O)c1ccc2[nH]c(-c3ccc(=O)n(-c4ccccc4)c3)nc2c1"
  UNIT NAME: "%"
  RECORDED VALUE: 88.5

* * *

Sequence of the target: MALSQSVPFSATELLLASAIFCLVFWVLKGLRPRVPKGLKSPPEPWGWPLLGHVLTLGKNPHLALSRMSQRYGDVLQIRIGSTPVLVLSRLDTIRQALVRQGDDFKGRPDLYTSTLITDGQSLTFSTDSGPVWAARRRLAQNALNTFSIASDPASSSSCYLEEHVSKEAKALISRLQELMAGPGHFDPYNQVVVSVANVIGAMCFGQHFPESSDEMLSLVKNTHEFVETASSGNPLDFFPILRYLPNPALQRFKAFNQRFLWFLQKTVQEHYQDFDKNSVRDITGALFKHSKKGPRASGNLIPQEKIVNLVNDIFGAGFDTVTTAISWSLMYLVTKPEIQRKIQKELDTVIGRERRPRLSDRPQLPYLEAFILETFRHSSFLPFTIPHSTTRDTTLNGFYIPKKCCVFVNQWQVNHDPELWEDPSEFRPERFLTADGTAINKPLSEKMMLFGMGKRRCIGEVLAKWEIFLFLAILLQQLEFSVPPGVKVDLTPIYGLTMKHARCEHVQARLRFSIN
pIC50: −log10 of the molar value.
MEASURED QUANTITY: pIC50

Below, each entry is followed by its recorded pIC50 result.
- TEST SMILES: "CCCS(=O)(=O)c1ccc2nc(-c3ccccc3)[nH]c2c1"
  pIC50: 5.54
- TEST SMILES: "CCS(=O)(=O)c1ccc2nc(-c3ccc(C)c(-c4ccccc4)c3)[nH]c2c1"
  pIC50: 5.49

(1) CCS(=O)(=O)c1ccc2nc(-c3cc(-c4ccccc4)ccc3Cl)[nH]c2c1
(2) CCS(=O)(=O)c1ccc2[nH]c(-c3cccc(-c4ccccc4)c3Cl)nc2c1
(3) CCS(=O)(=O)c1ccc2[nH]c(-c3cncc(-c4ccccc4)c3)nc2c1
Order each entry by recorded pIC50, climbing from the minimum. A ranking is expressed here by listing the labels in the requested order.
3, 2, 1
